Molecular target: TRPC3 protein (Homo sapiens)
Sequence (Q13507 1-921): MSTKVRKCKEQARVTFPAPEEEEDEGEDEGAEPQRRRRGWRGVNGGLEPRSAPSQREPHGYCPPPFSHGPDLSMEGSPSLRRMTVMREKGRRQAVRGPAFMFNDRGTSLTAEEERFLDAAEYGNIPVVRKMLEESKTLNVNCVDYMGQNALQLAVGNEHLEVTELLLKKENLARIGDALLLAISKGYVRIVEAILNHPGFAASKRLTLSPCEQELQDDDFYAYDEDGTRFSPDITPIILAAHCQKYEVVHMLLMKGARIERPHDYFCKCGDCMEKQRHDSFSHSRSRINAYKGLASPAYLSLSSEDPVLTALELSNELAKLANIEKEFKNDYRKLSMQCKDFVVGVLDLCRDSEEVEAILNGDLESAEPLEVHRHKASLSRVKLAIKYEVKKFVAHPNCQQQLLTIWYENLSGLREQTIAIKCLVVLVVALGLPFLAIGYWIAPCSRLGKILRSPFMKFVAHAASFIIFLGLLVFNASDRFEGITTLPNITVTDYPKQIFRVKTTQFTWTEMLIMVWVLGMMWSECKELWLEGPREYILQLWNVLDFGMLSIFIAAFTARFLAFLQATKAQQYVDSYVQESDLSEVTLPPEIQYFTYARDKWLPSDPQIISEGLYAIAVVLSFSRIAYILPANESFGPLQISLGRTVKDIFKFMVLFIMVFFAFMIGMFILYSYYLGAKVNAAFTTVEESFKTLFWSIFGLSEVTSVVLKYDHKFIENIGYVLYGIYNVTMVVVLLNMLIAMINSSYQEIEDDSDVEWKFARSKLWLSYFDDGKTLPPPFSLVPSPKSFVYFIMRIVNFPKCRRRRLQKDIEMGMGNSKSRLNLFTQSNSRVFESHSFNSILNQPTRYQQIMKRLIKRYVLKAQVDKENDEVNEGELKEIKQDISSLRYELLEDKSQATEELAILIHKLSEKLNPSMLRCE
Test Readout: Kd
Reply with the number and its unit after it.

// Kd lookup, compound = `Cn1c(C(=O)NCCCOC(=O)c2ccccc2)c(C=O)c2ccccc21` , result: 1400 nM

These measurements were taken from patent US12692232B2.
